Origin of the recorded values: paper PMC6331934

Provide the reported recovery at 90 min, 50 μM of each item.
# Measurement notes: Bidirectional transport across the Caco-2 cell monolayer (Papp, efflux ratio, mass balance)
# Condition label: human, Caco-2, pH 7.4, Total Recovery (%) BL→AP, mass balance, total amount in AP and BL sides; incubation up to 90 min; n = 3
Hi! Could you send only the number? It should be in %, unit omitted.

[ask] Provide one value: measured recovery at 90 min, 50 μM of O=c1c(-c2ccc(O)cc2)coc2cc(O[C@@H]3O[C@H](CO)[C@@H](O)[C@H](O)[C@H]3O)ccc12 [Compound 7, daidzin]
[reply] 98.5

[ask] Provide recovery at 90 min, 50 μM value for the following molecule: O=C1C=C(c2ccc(O)cc2O)[C@@H](Cc2ccc(O)cc2)O1 [Compound 9, puerol A]
[reply] 90.9

[ask] Find the measured recovery at 90 min, 50 μM of COc1ccc(-c2coc3cc(O)ccc3c2=O)cc1 [Compound 12, formononetin] and report it.
[reply] 98

[ask] Look up recovery at 90 min, 50 μM of O=c1c(-c2ccc(O)cc2)coc2cc(O)cc(O)c12 [Compound 11, genistein] and report it.
[reply] 75.7
